Target: Beta-lactamase (Pseudomonas aeruginosa, UniProt Q79MP6)
Sequence (Q79MP6 whole entry): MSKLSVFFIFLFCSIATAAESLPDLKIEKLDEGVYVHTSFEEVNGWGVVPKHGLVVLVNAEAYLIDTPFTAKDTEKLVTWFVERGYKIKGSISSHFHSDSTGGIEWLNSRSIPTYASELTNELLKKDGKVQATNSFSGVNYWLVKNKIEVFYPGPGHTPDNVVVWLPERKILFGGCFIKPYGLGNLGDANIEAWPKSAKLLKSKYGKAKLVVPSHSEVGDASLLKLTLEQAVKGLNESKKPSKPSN
Assay: Competitive inhibition of Pseudomonas aeruginosa beta-lactamase IMP-1 assessed as formation of 4-nitrothiophenolate at pH 7 using CENTA as chromogenic substrate
pKi: −log10 of the molar value.
measured_attribute: pKi

given_smiles	measured_attribute	value_reported
NC(=S)NNC(=O)c1ccc(C(=O)c2ccccc2Cl)cc1	pKi	4.85
NC(=S)NNC(=O)c1ccc(C(=O)c2ccccc2)cc1	pKi	4.89
NC(=S)NNC(=O)c1ccc(Cc2ccccc2)cc1	pKi	4.74
NC(S)=NNC(=O)c1ccccc1	pKi	4.72

(I) NC(=S)NNC(=O)c1ccc(C(=O)c2cccc([N+](=O)[O-])c2)cc1
(II) Cc1ccc(C(=O)c2ccc(C(=O)NNC(N)=S)cc2)cc1
Incoming: Field: lower recorded pKi (choose I or II ) Refer to your chosen item by its label in the answer.
Outgoing: II
(II: 4.39, I: 4.80)

(P) O=C(c1ccccc1)c1ccc(-c2nnc(S)[nH]2)cc1
(Q) NC(=S)NNC(=O)c1ccc(C(=O)c2ccc([N+](=O)[O-])cc2)cc1
Incoming: Field: lower recorded pKi (choose P or Q ) Refer to your chosen item by its label in the answer.
Outgoing: P

Where these numbers come from: BindingDB's records for doi:10.1016/j.bmcl.2011.10.116
